Tested on: β-catenin/Tcf-4
experiment notes: cells
Format: cell-based
condition summary: Tcf 33.13 cells derived from SW480; 24 hours of incubation with compound; ratio Firefly/Renilla luciferase
Entries annotated with measured IC50
Express your answer in nM, writing the number without its unit.

For orientation, consider the following solved cases.
compound | IC50 (nM)
C=Cc1cccc(-c2ccc3nc(N(C)C)nc(NCc4ccc(C(=O)Nc5ccc(F)cc5)cc4)c3c2)c1 [Example 172] | 308
O=C(Nc1ccc(CNc2nc(N3CCCC3)nc3ccc(C(F)(F)F)cc23)cc1)c1ccc(Cl)cc1 [Example 163] | 6550
Cc1ccc2nc(N3CCNCC3)nc(NCc3ccc(NC(=O)c4ccc(F)cc4)cc3)c2c1 [Example 45] | 1480
CN(C)c1cccc(-c2ccc3nc(N(C)C)nc(NCc4ccc(C(=O)Nc5ccc(F)cc5)cc4)c3c2)c1 [Example 170] | 806
CN(C)c1nc(NCc2ccc(C(=O)Nc3ccc(F)cc3)cc2)c2cc(/C=C/C(C)(C)C)ccc2n1 [Example 176] | 425

Input line: // returns reported IC50 for input Cc1ccc2nc(N(C)C)nc(NCc3ccc(NC(=O)c4ccc(F)cc4)cc3)c2c1 [Example 39]
Output line: 217

Input line: IC50 lookup needed for CN(C)c1ccc(-c2ccc3nc(N(C)C)nc(NCc4ccc(NC(=O)c5ccc(F)cc5)cc4)c3c2)nc1 [Example 169] , thanks.
Output line: 453

// data source = patent US20090004185A1
